Provenance of the data: paper PMC10692362

assay: PK studies in mice; format: in vivo, BALB/c female mice; conditions: female, BALB/c, mouse, plasma, iv, 2 mg/kg
measurement.type: AUC (ng·h/mL)
# value in ng·h/mL; strip the unit string

Exam item: If you can, please state the reported AUC value of CC(C)=CC(=O)Nc1ccc(C2=C(c3ccc(O)cc3)C3OC2CC3S(=O)(=O)N(CC(F)(F)F)c2ccc(O)cc2)cc1 (stereo not shown) [Compound 29c] .
Marked response: 1210

###

The compounds listed here are annotated with their RBA ERβ.
biological target: human ERβ LBD (Homo sapiens); test: Competitive fluorescence polarization binding assay, ERβ; details: IC50 estradiol/IC50 compound × 100, estradiol = 100%
Sequence (Q92731 264-498 limits assumed): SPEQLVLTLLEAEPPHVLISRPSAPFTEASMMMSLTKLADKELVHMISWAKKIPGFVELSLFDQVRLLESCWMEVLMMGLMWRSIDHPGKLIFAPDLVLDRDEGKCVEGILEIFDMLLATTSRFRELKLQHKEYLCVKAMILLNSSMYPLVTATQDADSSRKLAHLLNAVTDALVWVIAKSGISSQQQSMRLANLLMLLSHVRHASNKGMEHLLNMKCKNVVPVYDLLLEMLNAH
Kindly answer with a numeric value in %, unit omitted.

# example entries with known answers
INSERT INTO measurements (compound, measurement_type, display_unit, value_observed) VALUES
  ('C#CC(=O)Nc1ccc(OS(=O)(=O)C2CC3OC2C(c2ccc(O)cc2)=C3c2ccc(O)cc2)cc1 (stereo not shown) [Compound 26d]', 'RBA ERβ', '%', 0.49),
  ('O=C(CBr)Nc1ccc(C2=C(c3ccc(O)cc3)C3OC2CC3S(=O)(=O)Oc2ccccc2)cc1 (stereo not shown) [Compound 28e]', 'RBA ERβ', '%', 0.36),
  ('CCN(c1ccc(OC)cc1)S(=O)(=O)C1CC2OC1C(c1ccc(O)cc1)=C2c1ccc(NC(=O)C=C(C)C)cc1 (stereo not shown) [Compound 29j]', 'RBA ERβ', '%', 0.51);

Turning now to a further record.
Exam item: What value of measured RBA ERβ is listed for CCN(c1ccc(O)cc1)S(=O)(=O)C1CC2OC1C(c1ccc(O)cc1)=C2c1ccc(NC(=O)C=C(C)C)cc1 (stereo not shown) [Compound 29i] ?
Marked response: 5.12
